# assay.remarks: Size and polydispersity index PDI of lipid nanoparticles (Malvern Zetasizer Nano ZS)
# Type: physicochemical
# measurement.setup: LNP ionizable lipid/DOPE/cholesterol/DSPE-PEG2000 35/16/46.5/2.5 mol% encapsulating EGFP mRNA
measurement.name: PDI
Answers are plain numbers.

Here is how some molecules turned out for PDI.
[
  {
    "molecule": "CCCCCCCCCCC(O)CN(CCOCCOCCN(CCOCCOCCN(CC(O)CCCCCCCCCC)CC(O)CCCCCCCCCC)CCN1CCN(C)CC1)CC(O)CCCCCCCCCC (centres unmarked)",
    "measurement.name": "PDI",
    "assay.result": 0.172
  },
  {
    "molecule": "CCCCCCCCCCCCCCCCC(O)CN(CCOCCOCCN(CCOCCOCCN(CC(O)CCCCCCCCCCCCCCCC)CC(O)CCCCCCCCCCCCCCCC)CCN1CCN(CCO)CC1)CC(O)CCCCCCCCCCCCCCCC (centres unmarked)",
    "measurement.name": "PDI",
    "assay.result": 0.134
  },
  {
    "molecule": "CCCCCCCCCCC(O)CN(CCOCCN(CCOCCN(CC(O)CCCCCCCCCC)CC(O)CCCCCCCCCC)CCN1CCN(CCOCCN(CC(O)CCCCCCCCCC)CC(O)CCCCCCCCCC)CC1)CC(O)CCCCCCCCCC (centres unmarked)",
    "measurement.name": "PDI",
    "assay.result": 0.147
  },
  {
    "molecule": "CCCCCCCCCCCCCCCCC(O)CN(CCOCCN(CCOCCN(CC(O)CCCCCCCCCCCCCCCC)CC(O)CCCCCCCCCCCCCCCC)CCN1CCN(CCO)CC1)CC(O)CCCCCCCCCCCCCCCC (centres unmarked)",
    "measurement.name": "PDI",
    "assay.result": 0.163
  }
]

Consider now this further molecule.
Supply recorded PDI for CCCCCCCCCCCCCCC(O)CN(CCOCCOCCOCCN(CCOCCOCCOCCN(CC(O)CCCCCCCCCCCCCC)CC(O)CCCCCCCCCCCCCC)CCN1CCN(CCOCCOCCOCCN(CC(O)CCCCCCCCCCCCCC)CC(O)CCCCCCCCCCCCCC)CC1)CC(O)CCCCCCCCCCCCCC (centres unmarked) here.
0.117
